- system_under_test: GalNAc(a1-3)Gal
- assay_comment: glycan array binding signal (z-score within array); higher = stronger binding
- protocol_conditions: glycan notation: IUPAC condensed, linker removed
The sample as a whole holds a higher share of the strongest signals than the screen did.
parameter: glycan array binding signal (z-score)
# output: bare number, no unit

Prompt: Data request, read-out glycan array binding signal (z-score), for Cohesin-mDCIR (Macaca mulatta) (protein) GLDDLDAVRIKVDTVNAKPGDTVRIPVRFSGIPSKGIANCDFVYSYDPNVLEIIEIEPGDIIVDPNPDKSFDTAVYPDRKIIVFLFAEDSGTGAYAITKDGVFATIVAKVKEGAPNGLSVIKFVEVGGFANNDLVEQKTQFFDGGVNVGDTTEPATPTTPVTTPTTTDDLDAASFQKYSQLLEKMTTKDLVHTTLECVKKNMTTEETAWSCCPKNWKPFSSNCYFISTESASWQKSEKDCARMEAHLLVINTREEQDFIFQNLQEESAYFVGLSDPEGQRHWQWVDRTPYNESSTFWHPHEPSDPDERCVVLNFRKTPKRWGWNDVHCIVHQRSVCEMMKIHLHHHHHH
Completion: 0.417
